# Assayed target: par3-PDZ3 (residues 581 to 689 of M. musculus par3) (M. musculus, UniProt Q99NH2 581-689)
# Sequence (Q99NH2 581-689): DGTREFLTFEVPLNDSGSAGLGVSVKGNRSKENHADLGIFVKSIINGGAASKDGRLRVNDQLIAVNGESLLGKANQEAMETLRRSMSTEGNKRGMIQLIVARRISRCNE
# Assay method text: fluorescence polarisation
No end group written: not given here. rhodamine = not defined here
Recorded metric: pKd
Interpret pKd as the negative base-10 log of the concentration measured in mol/L.

So what does the record say about pKd for rhodamine-LYGSDPQEELII (reading uncertain) [rhodamine-labeled VE-Cad (773-784)] ? 5.22
